METRIC_NAME: melting point

compound="COc1nc(C(=O)O)ccc1CN1CC1C#N (stereo unspecified)" assay_value="96 to 97 °C"
compound="CCCNC(=S)c1ccc2c(c1)N([C@H](C)CN1CCC[C@@H](C)C1)c1ccccc1S2 (racemic)" assay_value="126 °C"
compound="CN(C)C(CC(F)C(=O)c1ccccc1)N1CCC(O)(c2ccc(Cl)cc2)CC1 (stereo unspecified)" assay_value="160 to 163 °C"
compound=Cn1cc(C(=O)C(=O)Cl)c2ccccc21 assay_value="122 to 133 °C"
compound=O=C(Nc1cccc(F)c1)c1ccccn1 assay_value="74 to 78 °C"
compound=CC(=O)NC1CC(C)(C)NC(C)(C)C1 assay_value="100 to 102 °C"
compound=COC(=O)c1cc(C(=O)c2c(C)c(OC)c3c(OCC(=O)O)cccn23)ccc1N assay_value="164 °C"
compound=FC(F)(F)c1ccc(-c2nc(-c3ccccn3)cs2)cc1 assay_value="123 to 127 °C"

Incoming: Using known records, supply melting point for N#CCC(=O)c1ccccc1Cl
Outgoing: 56 to 58 °C

Incoming: Using known records, supply melting point for CCOC(=O)NC1CCN(c2ncnc3cc(OC)c(OC)cc23)CC1
Outgoing: 179 to 181 °C

Incoming: Using known records, supply melting point for CC(c1oc2ccccc2c(=O)c1-c1cccc(F)c1)n1ccc2ncnc(Cl)c21 (stereo unspecified)
Outgoing: 166 to 168 °C
